Sourced from ChEMBL document CHEMBL1132155

- experimentDescription: Compound was evaluated for the biological half-life when administered orally in Acute Pulmonary Hypertension Rat Model
- Assay type: ADME, organism-based
- runConditions: in vivo, po
The recorded half-life of each item maps onto one of these classes: bottom bin = under 2 h, middle bin = from 2 h up to 3 h, top bin = 3 h and over

Challenge: Assign a category based on measured half-life for COc1cc(C#N)c(NC(=O)c2sccc2S(=O)(=O)Nc2onc(C)c2Cl)c(OC)c1OC and give only the class name.
Response given: bottom bin

Challenge: Tag the class for Cc1cc2c(cc1CC(=O)c1sccc1S(=O)(=O)Nc1onc(C)c1Cl)OCO2 [SITAXENTAN]
Response given: top bin

Challenge: Which class holds Cc1cc(C)c(NC(=O)c2sccc2S(=O)(=O)Nc2onc(C)c2Cl)c(C)c1CC#N ?
Response given: middle bin

Challenge: Returns: class label. Input: Cc1cc(C)c(NC(=O)c2sccc2S(=O)(=O)Nc2onc(C)c2Cl)c(C)c1O
Response given: top bin

Challenge: Which category does the recorded half-life put Cc1cc(C)c(NC(=O)c2sccc2S(=O)(=O)Nc2onc(C)c2Cl)c(C)c1 in?
Response given: middle bin

Challenge: Quick check: band for Cc1cc(C)c(NS(C)(=O)=O)c(C)c1NC(=O)c1sccc1S(=O)(=O)Nc1onc(C)c1Cl
Response given: middle bin

Challenge: Exercise: read the entry Cc1cc(C)c(NC(=O)c2sccc2S(=O)(=O)Nc2onc(C)c2Cl)c(C)c1CO and state which class it falls under.
Response given: bottom bin

Challenge: Where would Cc1cc(C)c(CC(=O)c2sccc2S(=O)(=O)Nc2onc(C)c2Cl)c(C)c1O land among the classes by reported half-life?
Response given: top bin

Challenge: Sort Cc1cc(C)c(NC(=O)c2sccc2S(=O)(=O)Nc2noc(C)c2Cl)c(C)c1CC#N into one of the categories.
Response given: top bin

Challenge: Tag the class for Cc1cc(C)c(NC(=O)c2sccc2S(=O)(=O)Nc2onc(C)c2Cl)c(C)c1C#N
Response given: bottom bin

Challenge: Into which category would you place Cc1cc(C)c(S(N)(=O)=O)c(C)c1NC(=O)c1sccc1S(=O)(=O)Nc1onc(C)c1Cl ?
Response given: bottom bin

Challenge: Tag the class for COc1c(C)cc(C)c(CC(=O)c2sccc2S(=O)(=O)Nc2onc(C)c2Cl)c1C
Response given: top bin

Challenge: Classify this compound: CC(=O)OCc1c(C)cc(C)c(NC(=O)c2sccc2S(=O)(=O)Nc2onc(C)c2Cl)c1C
Response given: bottom bin

Challenge: Form: Item = Cc1cc(C)c(N(C)C)c(C)c1NC(=O)c1sccc1S(=O)(=O)Nc1onc(C)c1Cl ; Class = ?
Response given: bottom bin

Challenge: Kindly state the category for this compound: Cc1cc(C)c(NC(=O)c2sccc2S(=O)(=O)Nc2onc(C)c2C)c(C)c1CC#N
Response given: bottom bin

Challenge: Hello team, could you let me know which band the following compound falls into: COc1c(C)cc(C)c(NC(=O)c2sccc2S(=O)(=O)Nc2onc(C)c2Cl)c1C
Response given: bottom bin
